# Tested on: RPMI-8226 leukemia
# test-summary: NCI tumour cell line growth inhibition, 48 h
Would you kindly list TGI for each of these compounds?

A selection of reference data follows.
Recorded result, C=CCN1C(=O)[C@]2(SC1=S)[C@H](c1cccc(Cl)c1)CN(C)[C@]21C(=O)NC2C=CC(Cl)=C[C@H]21 (stereo not given in full) , TGI: 4.97 µM

What the record says about Cc1ccc2c(c1)CC1(C2)Cc2ccc(C)cc2C1=O (stereo not given) : TGI is 95.3 µM

For every listed record, write down its TGI.
1. CCS(=O)(=O)N1CCN(c2ccc(Nc3ncc(C(N)=O)c(NC4CC4)n3)cc2)CC1
2. COc1nc2c(c(=O)[nH]1)N=C(c1ccc(Cl)cc1)CC(c1ccccc1)N2 (stereo not given)
3. O=c1[nH]c2ccccc2n1C1CCN(CCOc2ccccc2)CC1
4. CN1CCN(Cc2ccccc2)CC1CC#N (stereo not given)
5. O=S(=O)(CF)OCCCCOS(=O)(=O)CF
6. CCOC(=O)c1ccc(N(CCOS(=O)(=O)c2ccc(C)cc2)CCOS(=O)(=O)c2ccc(C)cc2)cc1

["9.82 µM", "65.8 µM", "> 100 µM", "> 100 µM", "> 100 µM", "> 100 µM"]

Dear colleague, could you send me TGI for each of the items below? Thanks.
1. COC(=O)/C(=N\N)C(C(=O)C(=O)Nc1nc(=S)[nH][nH]1)c1nc2ccc([N+](=O)[O-])cc2[nH]c1=O (stereo not given)
2. C=CCN1C(=O)CS/C1=N\NC(=O)CSc1nc2ccccc2c(=O)n1CC
3. C1=C\CCCCN2CC[C@H]3[C@H](CCCC/C=C\CCCN4C[C@@H](CCCCC/1)C[C@@H]3C4)C2

1. > 100 µM
2. > 100 µM
3. 6.16 µM
